pest or weed control at up to 500 g/ha for assorted compounds
# Test system: weed plants such as Lolium multiflorum, Amaranthus retroflexus, Sinapis alba, Stellaria media and Setaria viridis
# experiment.description: Post-emergence effect on weeds (greenhouse pot test, visual scoring)
# Type: in vivo
# stated.conditions: application rate of 500 g or less of active substance per hectare, visual scoring after about 3 to 4 weeks vs untreated controls, read-out: herbicidal action (control)

Answered cases to consult:
Cc1nn(-c2cccnc2)c(-c2ccccc2)c1CC(=O)O [Example 1-2] ... ≥ 70%
Cc1nn(-c2cccnc2)c(-c2cccc(Cl)c2)c1CC(=O)O [Example 1-17] ... ≥ 70%

Please turn your attention to the following entry.
Return pest or weed control at up to 500 g/ha for the following compound: C#CCOC(=O)Cc1c(C)nn(-c2cnccc2C)c1-c1ccccc1 [Example 3-76]
≥ 70%

* * *

# System: weed plants such as Lolium multiflorum, Amaranthus retroflexus, Sinapis alba, Stellaria media and Setaria viridis
# experiment.description: Pre-emergence effect on weeds (greenhouse pot test, visual scoring)
# Assay type: in vivo
# stated.conditions: pre-emergence method, application rate of 1 kg or less of active substance per hectare, visual scoring after 3 to 4 weeks vs untreated controls; read-out: herbicidal action (control)
readout.name: pest or weed control at up to 1000 g/ha

Cc1ccncc1-n1nc(C)c(CC(=O)O)c1-c1ccccc1 ... ≥ 70%
Cc1ccncc1-n1nc(C)c(CC(=O)OCC2CC2)c1-c1ccccc1 ... ≥ 70%
COC(=O)Cc1c(C)nn(-c2cnccc2C)c1-c1ccccc1 ... ≥ 70%
COC(=O)Cc1c(C)nn(-c2cccnc2)c1-c1cccc(Cl)c1 ... ≥ 70%

Return pest or weed control at up to 1000 g/ha for the following compound: "O=C(O)Cc1c(-c2ccccc2)nn(-c2cccnc2)c1-c1ccccc1"
≥ 70%

Return pest or weed control at up to 1000 g/ha for the following compound: "Cc1nn(-c2cccnc2)c(-c2cccc(Cl)c2)c1CC(=O)O"
≥ 70%

Return pest or weed control at up to 1000 g/ha for the following compound: "C#CCOC(=O)Cc1c(C)nn(-c2cnccc2C)c1-c1ccccc1"
≥ 70%

Return pest or weed control at up to 1000 g/ha for the following compound: "Cc1nn(-c2cccnc2)c(-c2ccccc2)c1CC(=O)O"
≥ 70%

Values from patent US8252723B2
